molecular target: Mannose-6-phosphate isomerase (Homo sapiens) (UniProt P34949); test: MPI inhibition at elevated mannose 6-phosphate – biochemical, fluorescence intensity, high mannose 6-phosphate, primary screen (AID 1220); settings: recombinant PMI enzyme, coupled fluorescence intensity; at 20 µM; stronger effect = higher value
Sequence (P34949 whole entry, looked up): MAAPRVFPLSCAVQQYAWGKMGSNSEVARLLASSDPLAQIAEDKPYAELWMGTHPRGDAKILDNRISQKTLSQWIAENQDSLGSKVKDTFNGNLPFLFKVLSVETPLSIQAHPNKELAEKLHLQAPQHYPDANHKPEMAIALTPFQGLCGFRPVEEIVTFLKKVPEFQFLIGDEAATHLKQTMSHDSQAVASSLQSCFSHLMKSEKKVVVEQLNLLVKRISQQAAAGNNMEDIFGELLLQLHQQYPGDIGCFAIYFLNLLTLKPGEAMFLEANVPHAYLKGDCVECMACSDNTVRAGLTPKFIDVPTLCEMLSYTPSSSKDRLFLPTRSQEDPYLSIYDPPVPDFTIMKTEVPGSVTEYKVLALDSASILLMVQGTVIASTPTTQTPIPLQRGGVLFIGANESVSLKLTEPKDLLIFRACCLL
Screen size: about 190,000 compounds; about 1,300 (0.68%) were called active. The sample holds actives, similar compounds and a random draw of the others, so the mix is not that of the screen.
recorded-endpoint: inhibition (%)
The response must be a number in % with no trailing unit.

Example entries begin here.
compound	unit-spec	recorded-measurement
CCCCCCn1c(=O)[nH]c2nc3cc(N)c(C)cc3nc2c1=O	%	49.7
Cc1cc(NC(=O)c2ccccc2F)n(-c2nc3ccccc3[nH]2)n1	%	-1.3
COc1ccc(C2=NN(c3nc(C)cc(C)n3)C(=O)C2)cc1	%	51.6
COC(=O)CCc1c(C)c(C(=O)c2ccc(F)cc2)c2ccccn12	%	6.2
CCOC(=O)CSc1nc2c(c(=O)[nH]c(=O)n2C)n1CCCc1ccccc1	%	2.2
CCc1nn(CC(=O)Nc2ccc(Br)c(C)c2)c(=N)s1	%	-9.2
CS(=O)(=O)c1ccccc1-c1nc(-c2cccc(Cl)c2)no1	%	9.9
COc1ccc(N2C(=O)CSC(c3ccccc3)C2=O)cc1 (centres undefined)	%	4.1
CCn1c(C)c(C(C)=O)c(N2CCN(c3ccccc3)CC2)nc1=S	%	-20.8
CCn1c(C)c(C(C)=O)c(N2CCN(c3ccc(OC)cc3)CC2)nc1=S	%	50.3

Data request: API: value(readout= inhibition, system= Mannose-6-phosphate isomerase (Homo sapiens) (UniProt P34949), query= COc1cc(OC)cc(-c2nc(-c3cccs3)no2)c1 )
Data returned: 10.1

Data request: Follow-up entry: Cc1cc(C)nc(N2N=C(c3ccccc3)CC2=O)n1
Data returned: 26.8

Data request: Lookup COc1cccc(C2NC(=O)c3ccccc3O2)c1OCc1ccccc1F (centres undefined)
Data returned: 19

Data request: Same question for C(=N\Nc1nc2ccccc2[nH]1)/c1ccccn1 please.
Data returned: -33.9

Data request: Query N#CCSc1nnc(C2CCCCC2)n1-c1ccccc1 next
Data returned: 11.9

Data request: Also CCN1/C(=N\N)c2cccc3cccc1c23 ?
Data returned: -13

Data request: Likewise for O=C(c1cc2ccccc2o1)N1CCCC1 ?
Data returned: -0.3

----------
target: Mannose-6-phosphate isomerase (Homo sapiens) (UniProt P34949); assay: MPI inhibition at elevated mannose 6-phosphate – biochemical, fluorescence intensity, high mannose 6-phosphate, primary screen (AID 1220); settings: recombinant PMI enzyme, coupled fluorescence intensity; at 20 µM; stronger effect = higher value
In all, about 190,000 compounds went through this assay and about 1,300 (0.68%) were called active. The list comes from a sample in which actives are over-represented; it also holds close analogues and randomly drawn compounds.
recorded-endpoint: inhibition (%)
# number only, unit % dropped from output

The examples below pair each entry with its known result.
molecule	experimental-target	recorded-measurement
NC(=O)C1=C[C@H](c2ccccc2)C[C@H](OCc2ccc(CO)cc2)O1	Mannose-6-phosphate isomerase (Homo sapiens) (UniProt P34949)	59.2
COc1cc(C2/C(=C(\O)c3ccc4c(c3)CC(C)O4)C(=O)C(=O)N2CCCn2ccnc2)ccc1O (centres undefined)	Mannose-6-phosphate isomerase (Homo sapiens) (UniProt P34949)	54.7
CCOC(=O)/C(=C/c1ccc(OC(=O)c2ccncc2)cc1)C(C)=O	Mannose-6-phosphate isomerase (Homo sapiens) (UniProt P34949)	61.4
NC(=O)C1=C[C@@H](c2ccccc2)C[C@@H](OCc2ccc(CO)cc2)O1	Mannose-6-phosphate isomerase (Homo sapiens) (UniProt P34949)	66
O=C(O)C1=C[C@@H](c2ccccc2)C[C@@H](OCc2ccc(CO)cc2)O1	Mannose-6-phosphate isomerase (Homo sapiens) (UniProt P34949)	-9.3

Data request: Item under review: NC(=O)C1=C[C@@H](c2ccc(Br)cc2)C[C@@H](OCc2ccc(CO)cc2)O1 . Reported inhibition?
Data returned: 27.4

Data request: Try this molecule next: NC(=O)C1=C[C@H](c2ccc(C(F)(F)F)cc2)C[C@H](OCc2ccc(CO)cc2)O1
Data returned: 43.9

Data request: Thanks! And NC(=O)C1=C[C@H](c2ccc(Br)cc2)C[C@H](OCc2ccc(CO)cc2)O1 ?
Data returned: 51

Data request: One more molecule: COCCOC(=O)/C(=C/c1ccc(OC(=O)c2ccccc2)cc1)C(C)=O
Data returned: 0.4
